test: in vitro; format: cell-based, human; conditions: human, k562 cells, 1.0 μg/ml; read-out: Suppression
Below, each entry is listed alongside its reported cytotoxicity at 72 h.
Give the number; % is assumed, so skip it.

Solved cases (5 shown):
Consider CCCCCCC(=O)CCCCCCCCCC(O)C(O)C(N)(CO)C(=O)O (centres unmarked) . Its measured cytotoxicity at 72 h is 3.1

get_value(item= CCCCCCC(O)CCCCCC/C=C/CC(O)C(O)C(N)(CO)C(=O)O (centres unmarked) , readout=cytotoxicity at 72 h) returns 4.5

For this compound ( CCCCCCC(=O)CCCCCC/C=C/CC1OC(=O)C(N)(CO)C1O (centres unmarked) ), measured cytotoxicity at 72 h is 8.3

The compound listed as CCCCCCC(=O)CCCCCCCCCC1OC(=O)C(N)(CO)C1O (centres unmarked) has a reported cytotoxicity at 72 h of 13.8

Value of cytotoxicity at 72 h reported for the compound CCCCCCC(O)CCCCCCCCCC(O)C(O)C(N)(CO)C(=O)O (centres unmarked) is 5.5

Further cases:
Entry CCCCCCC(O)CCCCCCCCCC1OC(=O)C(N)(CO)C1O (centres unmarked) ; cytotoxicity at 72 h = 10.9

For this compound ( CCCCCCC(=O)CCCCCC/C=C/CC1OC(=O)C(CO)(NC(C)=O)C1O (centres unmarked) ), measured cytotoxicity at 72 h is 12.5

Memo: CCCCCCC(O)CCCCCC/C=C/CC1OC(=O)C(N)(CO)C1O (centres unmarked) , reported cytotoxicity at 72 h: 16.6

Where do the numbers come from? From patent US5219884A.
